Each entry below carries its recorded pIC50.
- target-desc: KRAS G12D (Homo sapiens, UniProt P01116, G12D)
- Sequence (P01116 1-188 isoform P01116-2 G12D): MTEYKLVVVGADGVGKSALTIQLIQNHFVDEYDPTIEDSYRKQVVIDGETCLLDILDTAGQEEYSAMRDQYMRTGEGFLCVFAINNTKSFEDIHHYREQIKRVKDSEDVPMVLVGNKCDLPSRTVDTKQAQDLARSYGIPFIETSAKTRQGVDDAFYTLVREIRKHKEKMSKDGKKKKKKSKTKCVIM
- protocol-description: KRAS G12D GDP-GTP exchange assay (bodipy-GDP/GppNHp, SOS1)
- stated-conditions: bodipy loaded KRAS G12D 2.5 nM, 4 hours incubation after GppNHp-SOS1; read-out: G12D_exchange (KRAS_G12D exchange assay IC50)
pIC50: −log10 of the molar value.

Take a look at these entries with their results.
CN(C)C1CN(c2nc3c(F)c(-c4cc(O)cc5ccccc45)c(CC#N)cc3c3c2NC(=O)C32CCCNC2)C1 (single isomer, unassigned) [Example 24a]	5.30 to 6.00
CN1CCC[C@H]1COc1nc2c(F)c(-c3cc(O)cc4ccccc34)c(CCCC#N)cc2c2c1N(CC#N)C(=O)C21CCCNC1 (single isomer, unassigned) [Example 36a]	5.30 to 6.00
CN(C)C1CN(c2nc3c(F)c(-c4cc(O)cc5ccccc45)c(CCCC#N)cc3c3c2NC(=O)C32CCCNC2)C1 (single isomer, unassigned) [Example 23b]	6.00 to 7.00
CN(C)C1CN(c2nc3c(F)c(-c4cc(O)cc5ccc(Cl)cc45)c(Cl)cc3c3c2NC(=O)C32CCCNC2)C1 (single isomer, unassigned) [Example 20b]	5.30 to 6.00
CN(C)C1CN(c2nc3c(F)c(-c4cc(O)cc5ccccc45)c(CCC#N)cc3c3c2NC(=O)C32CNC2)C1 [Example 29]	5.30 to 6.00
CN(C)C1CN(c2nc3c(F)c(-c4cc(O)cc5ccccc45)c(CCCC#N)cc3c3c2NC(=O)C32CNCCO2)C1 (single isomer, unassigned) [Example 31b]	4.30 to 5.30
CN(C)C1CN(c2nc3c(F)c(-c4cc(O)cc5ccccc45)c(CCCC#N)cc3c3c2NC(=O)C32CCNC2)C1 (single isomer, unassigned) [Example 30b]	5.30 to 6.00
CN(C)C1CN(c2nc3c(F)c(-c4cc(O)cc5ccccc45)c(CCC#N)cc3c3c2NC(=O)C32CCCNC2)C1 (single isomer, unassigned) [Example 25b]	5.30 to 6.00

Prompt: Value lookup for pIC50; key = CN1C(=O)C2(CCCNC2)c2c1c(OC[C@@H]1CCCN1C)nc1c(F)c(-c3cc(O)cc4ccccc34)c(CCCC#N)cc21 (single isomer, unassigned) [Example 33b]
Completion: 5.30 to 6.00

Prompt: Value lookup for pIC50; key = CN1CCC[C@H]1COc1nc2c(F)c(-c3cc(O)cc4ccccc34)c(CCCC#N)cc2c2c1NC(=O)C21CCCNC1 (single isomer, unassigned) [Example 32b]
Completion: 5.30 to 6.00

Prompt: Value lookup for pIC50; key = Cc1cc2c3c(c(N4CC(N(C)C)C4)nc2c(F)c1-c1cc(O)cc2ccccc12)NC(=O)C31CCCNC1 (single isomer, unassigned) [Example 19b]
Completion: 5.30 to 6.00

Prompt: Value lookup for pIC50; key = CN1CCC[C@H]1COc1nc2c(F)c(-c3cc(O)cc4ccccc34)c(CCCC#N)cc2c2c1N(CCO)C(=O)C21CCCNC1 (single isomer, unassigned) [Example 34b]
Completion: 5.30 to 6.00

Prompt: Value lookup for pIC50; key = CN(C)C1CN(c2nc3c(F)c(-c4cc(O)cc5ccccc45)c(Cl)cc3c3c2NC(=O)C32CC3CC2CN3)C1 (single isomer, unassigned) [Example 21b]
Completion: 5.30 to 6.00
